Every entry's value here was drawn from patent US9834542B2.

# assayed-system: LXRβ (Homo sapiens)
# Construct: Co-transfection expression plasmids, comprising full-length LXRα (pCMX-h LXRα[…] or LXRβ (pCMX-hLXRβ))
# assay-remarks: Co-transfection assay (LXRE luciferase reporter), LXRβ
# settings: CV-1 cells transfected with pCMX-hLXRβ and LXREx1-Tk-Luciferase; 20 hours incubation
test-readout: EC50 (µM)

A. COc1ccc(-c2cnnn2-c2cc(-c3cccc(S(C)(=O)=O)c3)ccc2-n2cc(C(F)(F)F)nc2C)c(C)c1
B. Cc1nc(C(F)F)cn1-c1ccc(-c2cc(F)c(CO)c(S(C)(=O)=O)c2)cc1-c1cnnn1Cc1ccc(Cl)cc1
C. Cc1nc(C(F)(F)F)cn1-c1ccc(-c2cccc(S(C)(=O)=O)c2)cc1-n1nncc1-c1cccc(OC(F)F)c1
D. Cc1nc(C(F)(F)F)cn1-c1ccc(-c2cccc(S(C)(=O)=O)c2)cc1-n1nncc1-c1ccc(C(F)(F)F)cc1
E. CNS(=O)(=O)c1cccc(-c2ccc(-n3cc(C(F)(F)F)nc3C)c(-c3ocnc3-c3ccc(OC(F)(F)F)cc3)c2)c1
Data request: Using measured EC50, arrange the molecules from above in descending sequence. List the labels in the requested order.
Data returned: C, A, D, B, E
(C: 0.758 µM, A: 0.512 µM, D: 0.276 µM, B: 0.185 µM, E: 0.106 µM)

P. CS(=O)(=O)c1cccc(-c2ccc(-n3cc(C(F)(F)F)nc3Cl)c(-n3nncc3-c3ccc(Cl)cc3)c2)c1
Q. Cc1nc(C(F)(F)F)cn1-c1ccc(-c2cc(F)c(CO)c(S(C)(=O)=O)c2)cc1-c1cnnn1-c1ccc(OC(F)(F)F)cc1
R. Cc1nc(C(F)(F)F)cn1-c1ccc(-c2cc(F)c(CO)c(S(C)(=O)=O)c2)cc1-c1ccnn1-c1ccc(Cl)nc1
S. Cc1nc(C(N)=O)cn1-c1ccc(-c2cc(F)c(CO)c(S(C)(=O)=O)c2)cc1-c1nc(C2CC2)oc1-c1ccc2c(c1)OC(F)(F)O2
Data request: Rank the items in ascending order with respect to EC50. Give the labels in the order specified.
Data returned: S, Q, R, P

P. Cc1nc(C(F)(F)F)cn1-c1ccc(-c2cc(F)cc(S(C)(=O)=O)c2)cc1-n1nncc1-c1ccc(OC(F)(F)F)cc1
Q. Cc1nc(C(F)(F)F)cn1-c1ccc(-c2cc(F)c(CO)c(S(C)(=O)=O)c2)cc1-c1nc(CCO)oc1-c1ccc2c(c1)OC(F)(F)O2
Data request: Between these two entries, P and Q , state which has the higher EC50. Answer = label.
Data returned: Q

I. Cc1nc(C(F)(F)F)cn1-c1ccc(-c2cccc(S(C)(=O)=O)c2)cc1-n1nncc1-c1ccc(Cl)cc1F
II. Cc1nc(C(F)(F)F)cn1-c1ccc(-c2cccc(S(C)(=O)=O)c2)cc1-n1nncc1-c1ccc(CF)cc1
Data request: I'm curious whether I or II has the smaller EC50 number. Which is it? Your answer should be the label attached to the chosen record.
Data returned: II
(II: 0.559 µM, I: 0.86 µM)

###

# assayed-system: LXRβ (Homo sapiens)
# Construct: Co-transfection expression plasmids, comprising full-length LXRα (pCMX-h LXRα[…] or LXRβ (pCMX-hLXRβ))
# Sequence (P55055 1-460): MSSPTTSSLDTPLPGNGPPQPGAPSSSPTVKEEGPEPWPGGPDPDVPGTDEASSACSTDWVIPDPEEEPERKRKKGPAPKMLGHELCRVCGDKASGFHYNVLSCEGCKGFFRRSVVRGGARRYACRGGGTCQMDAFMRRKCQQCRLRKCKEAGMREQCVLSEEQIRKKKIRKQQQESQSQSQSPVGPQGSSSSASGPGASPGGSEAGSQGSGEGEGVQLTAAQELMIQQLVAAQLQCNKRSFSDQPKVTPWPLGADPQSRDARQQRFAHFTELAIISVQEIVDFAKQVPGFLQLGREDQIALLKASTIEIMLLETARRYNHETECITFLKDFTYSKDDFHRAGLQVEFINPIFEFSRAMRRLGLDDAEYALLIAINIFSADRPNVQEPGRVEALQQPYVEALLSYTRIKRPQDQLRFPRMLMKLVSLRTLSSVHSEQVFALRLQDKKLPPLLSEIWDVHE
# Sequence (P19793 1-462 partner): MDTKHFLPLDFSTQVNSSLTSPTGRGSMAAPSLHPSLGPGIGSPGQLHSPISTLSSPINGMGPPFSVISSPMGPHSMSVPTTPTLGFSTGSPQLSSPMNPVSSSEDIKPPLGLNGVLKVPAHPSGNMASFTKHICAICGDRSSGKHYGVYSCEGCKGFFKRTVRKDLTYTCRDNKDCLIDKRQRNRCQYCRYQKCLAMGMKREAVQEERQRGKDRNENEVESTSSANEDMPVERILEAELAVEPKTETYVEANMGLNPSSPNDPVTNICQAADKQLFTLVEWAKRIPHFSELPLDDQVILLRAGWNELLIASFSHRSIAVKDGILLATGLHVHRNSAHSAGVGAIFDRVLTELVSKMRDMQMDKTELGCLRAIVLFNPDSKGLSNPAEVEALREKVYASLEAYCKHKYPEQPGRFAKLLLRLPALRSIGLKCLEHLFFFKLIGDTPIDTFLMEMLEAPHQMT
# assay-remarks: Co-transfection assay (LXRE luciferase reporter), LXRβ
# settings: CV-1 cells transfected with pCMX-hLXRβ and LXREx1-Tk-Luciferase; 20 hours incubation
pEC50: −log10 of the molar value.
test-readout: pEC50

Some solved cases for reference:
{"columns": ["molecule", "pEC50"],
 "data": [
  ["Cc1nc(C(F)(F)F)cn1-c1ccc(-c2cc(F)c(CO)c(S(C)(=O)=O)c2)cc1-c1oc(CCO)nc1-c1ccc(OC(F)(F)F)cc1 [Example 612]", 6.29],
  ["Cc1nc(-c2cc(-c3ccc(C)c(S(C)(=O)=O)c3)ccc2-n2cc(C(F)(F)F)nc2C)c(-c2cc(F)c(OC(F)F)c(F)c2)o1 [Example 470]", 6.96],
  ["Cc1nc(C(F)(F)F)c(Cl)n1-c1ccc(-c2cc(Cl)c(CO)c(S(C)(=O)=O)c2)cc1-n1nncc1-c1ccc(OC(F)(F)F)cc1 [Example 60]", 6.61],
  ["Cc1nc(C(F)(F)F)c(Cl)n1-c1ccc(-c2cccc(S(C)(=O)=O)c2)cc1-n1nncc1-c1ccc(Cl)cc1Cl [Example 59]", 6.66]
]}

A. Cc1nc(C(F)(F)F)cn1-c1c(F)cc(-c2cccc(S(C)(=O)=O)c2)cc1-n1nncc1-c1ccc(Cl)cc1 [Example 204]
B. Cc1nc(-c2cc(-c3cccc(S(C)(=O)=O)c3)ccc2-n2cc(C(F)(F)F)nc2C)c(-c2ccccc2OC(F)F)o1 [Example 547]
C. Cc1nc(-c2cc(-c3cccc(S(C)(=O)=O)c3)ccc2-n2cc(C(F)(F)F)nc2C)c(-c2ccc(N3CCCC3=O)cc2)o1 [Example 502]
Data request: Returns the items ordered by pEC50, from maximum to minimum. Lab note: record answer as labels in requested order.
Data returned: A, B, C
(A: 6.96, B: 6.32, C: 5.90)
